biological target: SHP2-C SH2; assay: SH2 binding enrichment of the phosphorylated peptide, bacterial display (enrichment ratio); higher = better substrate or ligand; peptides without Tyr show the background;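 also: peptide library displayed on the E. coli surface as eCPX fusions, selected cells deep-sequenced, score is each peptide's frequency after selection divided by its frequency in the input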
Answer rule not met if SH2 binding enrichment is under 0.7, and rule met if it is 0.7 or more.

>>> print(df.to_string())
                   sequence_chain  assay_target         class
0         LHRAHYDLRHT [AHSG_Y314]    SHP2-C SH2      rule met
1   KHCEDYVFSYN [DSC1_Y846_C848F]    SHP2-C SH2  rule not met
2     EEGNPYFSSAR [MCCC2_Y520_YF]    SHP2-C SH2  rule not met
3  QEIATCRRLLE [KRT14_Y415_Y415C]    SHP2-C SH2  rule not met
4    KLQKKYGPIFS [CYP17A1_Y60_YF]    SHP2-C SH2      rule met
5     SHEELYKWFTS [DYNC1H1_Y3051]    SHP2-C SH2      rule met
6        EDKSIYRRGAR [PRKCI_Y125]    SHP2-C SH2  rule not met
7         YHLLPYTVRAM [PARS2_Y93]    SHP2-C SH2      rule met
8    PLLLSYFLIKW [NUP160_Y773_YF]    SHP2-C SH2      rule met
9        EVTLTYATGTK [NFKB1_Y485]    SHP2-C SH2  rule not met

Data origin: the supplement of paper PMC10065799
